PROTOCOL NOTES: Human HepG2 cell viability assay in 384 well format
Type: toxicity, cell-based
Parameters: dose 125 nL, time 70.5 hour; concentration not given beside the values
SETTINGS: HepG2 cells, read-out: Inhibition
Catalogue of cytotoxicity at 70.5 h readings, one per entry.
Entry rule: numbers only, all in %.

Ask: What value of measured cytotoxicity at 70.5 h is listed for CN(C)CCOCc1nnc2n1CCN(Cc1cccs1)CC2 ?
Result: 1.78

Ask: What value of measured cytotoxicity at 70.5 h is listed for O=C(CN1CCOC1=O)N1CC[C@@H](c2ccc3ccccc3c2)[C@H](O)C1 ?
Result: -9.33

Ask: What value of measured cytotoxicity at 70.5 h is listed for Cc1ccc(C(=O)N2CCC(c3noc(-c4cccnc4)n3)CC2)cn1 ?
Result: -3.32

Ask: What value of measured cytotoxicity at 70.5 h is listed for Cc1nn(-c2ccccc2Cl)c(C)c1CCC(=O)O ?
Result: 4.21

Ask: What value of measured cytotoxicity at 70.5 h is listed for CNS(=O)(=O)c1cccc(C(C)NCc2cccc(OC)c2)c1 (stereo not drawn) ?
Result: 10.9
